Hey, just so you know, these numbers are from patent US20260193293A1.

target system: Sushi domains (SD1/2) protein
assay notes: Fluorescence polarization (FP) competition assay with AJAP-1probe, calculated Ki
Format: binding
test conditions: Table 1, affinity maturation; mean ± SEM, n ≥ 3; read-out: Ki
Residues, ends and D or L forms follow the SMILES beside them.
measured metric: Ki (nM)

>>> endpoint_result("CC[C@H](C)[C@H](NC(=O)[C@H](Cc1c[nH]c2ccccc12)NC(=O)[C@H](CO)NC(=O)[C@H](CC(=O)O)NC(=O)[C@H](CC(=O)O)NC(=O)[C@H](CCC(=O)O)NC(C)=O)C(=O)N[C@@H](Cc1c[nH]c2ccccc12)C(=O)N[C@@H](Cc1c[nH]c2ccccc12)C(=O)N[C@@H](Cc1ccc(O)cc1)C(=O)NCC(=O)N[C@@H](C)C(=O)N[C@@H](CC(=O)O)C(=O)N[C@H](C(=O)N[C@@H](CC(=O)O)C(N)=O)[C@@H](C)O [Peptide 28] (Ac-EDDSWIWWYGADTD-NH2)")
18
